Target: glycosylated human PAI-1 (active form) (human, UniProt P05121 24-402, glycosylated (sites not given))
Sequence (P05121 24-402 limits assumed, form in doubt): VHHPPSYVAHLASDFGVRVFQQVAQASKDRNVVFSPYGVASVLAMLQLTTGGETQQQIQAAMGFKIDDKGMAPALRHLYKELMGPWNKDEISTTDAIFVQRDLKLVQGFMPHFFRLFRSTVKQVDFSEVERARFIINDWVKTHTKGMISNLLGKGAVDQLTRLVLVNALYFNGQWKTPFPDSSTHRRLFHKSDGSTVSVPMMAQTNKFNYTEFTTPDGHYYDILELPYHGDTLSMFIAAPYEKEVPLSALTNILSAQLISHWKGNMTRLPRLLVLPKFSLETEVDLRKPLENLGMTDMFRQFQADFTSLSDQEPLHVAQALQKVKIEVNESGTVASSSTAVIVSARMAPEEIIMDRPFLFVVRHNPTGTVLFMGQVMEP
Test: cell-based or functional assay
ASSAY_METRIC: plasmin generation, IC50abs (nM)
Report the value in nM with no unit label.

Query :: plasmin generation, IC50abs for B109 (antibody) chain 1: SGQGLDWIGAIYPGNSDTTYNQKFEDKAKLTAVASASTAYMEVSSLTNEDSAVYYCTRGLRRWGAMDYWGQGTSVTVSS chain 2: DIVMTQSHKFMSTSAGDRVSIPCKASQDVSSAVAWYQQKLGQSPKLLIYSASFRYTGVPDRFTGSGSGTDFTFTISSVQAEDLAVYYCQQHYSSPYTFGGGTNLEIK ?
Result :: 6.11
